target: FRMPD2_2, Q68DX3; assay: holdup assay; parameters: key: below the threshold = too weak to quantify, mostly under pKd 3.1 to 4; conditions: plain residues with an end cap or a label only (N-terminal biotin on a linker: ado-ado)
Sequence (Q68DX3 944-1038): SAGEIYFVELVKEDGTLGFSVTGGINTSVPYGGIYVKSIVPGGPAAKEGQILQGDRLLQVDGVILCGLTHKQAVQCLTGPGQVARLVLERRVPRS
Measured property: pKd

Known pKd results, listed for orientation:
Problem: Return reported pKd; argument: PSDSVGKDVF [EGLN1, Q9GZT9]
Solution: below the threshold

Problem: Check DLLGGGSDSI [TNRC6B, Q9UPQ9] too.
Solution: below the threshold

Problem: Check NNMAFETTHF [SLC5A12, Q1EHB4] too.
Solution: below the threshold

Problem: Check MLPANYVEAI [NEB, P20929] too.
Solution: below the threshold

Problem: Check HYPASPDSWV [CTNND2, Q9UQB3] too.
Solution: 4.54

Problem: Check DFKHTKSFII [JAM2, P57087] too.
Solution: below the threshold

Next:
Problem: Return reported pKd; argument: KEKASTETEC [TRPM1, Q7Z4N2]
Solution: below the threshold

Problem: Check LPPPESESKV [KCNJ9, Q92806] too.
Solution: 3.56
